target: Cholinesterase (Equus caballus) (UniProt P81908); experiment: Inhibition of horse serum BChE at 100 uM preincubated for 5 mins by Ellman's method
Sequence (P81908 whole entry): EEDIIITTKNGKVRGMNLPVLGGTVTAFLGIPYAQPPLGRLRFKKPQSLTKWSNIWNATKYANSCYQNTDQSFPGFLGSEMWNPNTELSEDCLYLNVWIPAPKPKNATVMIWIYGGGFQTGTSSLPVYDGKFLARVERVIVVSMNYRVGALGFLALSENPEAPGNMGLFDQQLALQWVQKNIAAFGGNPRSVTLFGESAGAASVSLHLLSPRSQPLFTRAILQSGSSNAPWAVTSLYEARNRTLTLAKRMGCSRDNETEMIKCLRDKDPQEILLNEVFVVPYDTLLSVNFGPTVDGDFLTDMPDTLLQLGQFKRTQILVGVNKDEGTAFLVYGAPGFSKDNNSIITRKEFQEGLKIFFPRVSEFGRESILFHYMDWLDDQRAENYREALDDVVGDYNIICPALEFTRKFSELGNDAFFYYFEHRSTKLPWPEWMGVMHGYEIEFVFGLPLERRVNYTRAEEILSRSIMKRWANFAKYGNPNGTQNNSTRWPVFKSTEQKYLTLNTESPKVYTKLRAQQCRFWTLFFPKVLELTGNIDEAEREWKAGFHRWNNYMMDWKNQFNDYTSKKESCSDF
inhibition values for the compounds below.

{"columns": ["smiles.data", "unit.spec", "inhibition"],
 "data": [
  ["CCNC(=O)Oc1ccc(CC(=O)N2CCN(Cc3ccccc3)CC2)cc1", "%", 83.4],
  ["CCCCNC(=O)Oc1ccc(CC(=O)NC2CCN(Cc3ccccc3)CC2)cc1", "%", 63.4],
  ["CCNC(=O)Oc1ccc(CC(=O)NC2CCN(Cc3ccccc3)CC2)cc1", "%", 90.4],
  ["CN(C)C(=O)Oc1cccc(CC(=O)N2CCN(Cc3ccccc3)CC2)c1", "%", 79],
  ["O=C(Cc1cccc(O)c1)NC1CCN(Cc2ccccc2)CC1", "%", 49.8],
  ["CC(C)NC(=O)Oc1cccc(CC(=O)N2CCN(Cc3ccccc3)CC2)c1", "%", 77.7],
  ["Cc1ccccc1NC(=O)Oc1ccc(CC(=O)NC2CCN(Cc3ccccc3)CC2)cc1", "%", 46.9],
  ["CCNC(=O)Oc1cccc(CC(=O)NC2CCN(Cc3ccccc3)CC2)c1", "%", 68.6],
  ["CCCCNC(=O)Oc1cccc(CC(=O)NC2CCN(Cc3ccccc3)CC2)c1", "%", 92],
  ["CCCCNC(=O)Oc1cccc(CC(=O)N2CCN(Cc3ccccc3)CC2)c1", "%", 92.7]
]}

====

// endpoint IC50 / system UniProt P81908
reported.endpoint: IC50 (µM)

{"columns": ["smiles.data", "numeric.value"],
 "data": [
  ["CCCCNC(=O)Oc1cccc(CC(=O)N2CCN(Cc3ccccc3)CC2)c1", 10],
  ["CCCNC(=O)Oc1ccc(CC(=O)NC2CCN(Cc3ccccc3)CC2)cc1", 9.33],
  ["CCNC(=O)Oc1ccc(CC(=O)NC2CCN(Cc3ccccc3)CC2)cc1", 10.7],
  ["CCCCNC(=O)Oc1ccc(CC(=O)N2CCN(Cc3ccccc3)CC2)cc1", 16.6],
  ["CC(C)NC(=O)Oc1cccc(CC(=O)NC2CCN(Cc3ccccc3)CC2)c1", 29.5],
  ["CCCCNC(=O)Oc1ccc(CC(=O)NC2CCN(Cc3ccccc3)CC2)cc1", 11.7],
  ["CC(C)NC(=O)Oc1ccc(CC(=O)N2CCN(Cc3ccccc3)CC2)cc1", 52.5],
  ["CCNC(=O)Oc1cccc(CC(=O)NC2CCN(Cc3ccccc3)CC2)c1", 37.2],
  ["CCNC(=O)Oc1ccc(CC(=O)N2CCN(Cc3ccccc3)CC2)cc1", 43.7],
  ["CN(C)C(=O)Oc1ccc(CC(=O)NC2CCN(Cc3ccccc3)CC2)cc1", 8.91],
  ["CC(C)NC(=O)Oc1cccc(CC(=O)N2CCN(Cc3ccccc3)CC2)c1", 35.5],
  ["CC(C)NC(=O)Oc1ccc(CC(=O)NC2CCN(Cc3ccccc3)CC2)cc1", 18.2],
  ["CN(C)C(=O)Oc1cccc(CC(=O)N2CCN(Cc3ccccc3)CC2)c1", 23.4],
  ["CN(C)C(=O)Oc1cccc(CC(=O)NC2CCN(Cc3ccccc3)CC2)c1", 21.9],
  ["CCCCNC(=O)Oc1cccc(CC(=O)NC2CCN(Cc3ccccc3)CC2)c1", 5.75],
  ["CCNC(=O)Oc1cccc(CC(=O)N2CCN(Cc3ccccc3)CC2)c1", 55],
  ["CCCNC(=O)Oc1ccc(CC(=O)N2CCN(Cc3ccccc3)CC2)cc1", 32.4]
]}
